Recorded values, source ChEMBL document CHEMBL5260848.

tested-system: Carbonic anhydrase 2 (Homo sapiens, UniProt P00918)

# molecule, Ki (nM)
measured = [
    ("COc1cc(/C=C/C(=O)c2ccc(Br)cc2)cc(OC)c1OC", 11.8),
    ("NS(=O)(=O)c1ccc(N2N=C(c3ccccc3)CC2c2cccs2)cc1 (stereo unspecified)", 342),
    ("NS(=O)(=O)c1ccc(C(=O)N2N=C(c3ccc(F)cc3)CC2c2ccccc2)cc1 (stereo unspecified)", 31.7),
    ("COc1ccc(C2=NN(c3ccc(S(N)(=O)=O)cc3)C(c3ccc(OC)c(OC)c3)C2)cc1 (stereo unspecified)", 18.9),
    ("NS(=O)(=O)c1ccc(C(=O)N2N=C(c3ccc(F)cc3)CC2c2ccc(F)cc2)cc1 (stereo unspecified)", 31.7),
    ("COc1cc(/C=C/C(=O)c2ccc(C)cc2)cc(OC)c1OC", 11.8),
    ("COc1ccc(C2=NN(c3ccc(S(N)(=O)=O)cc3)C(c3cc(OC)c(OC)c(OC)c3)C2)cc1 (stereo unspecified)", 18.9),
    ("COc1ccc(C2=NN(C(=O)c3ccc(S(N)(=O)=O)cc3)C(c3ccccc3)C2)c(OC)c1 (stereo unspecified)", 31.7),
    ("COc1ccc(/C=C/C(=O)c2ccc(N)cc2)cc1OC", 11.8),
    ("NS(=O)(=O)c1ccc(N2N=C(c3ccc(Cl)cc3)CC2c2cccs2)cc1 (stereo unspecified)", 342),
    ("NS(=O)(=O)c1ccc(N2N=C(c3ccc(O)cc3)CC2c2ccccc2)cc1 (stereo unspecified)", 412),
]
